system: UO-31 renal; assay: NCI tumour cell line growth inhibition, 48 h
property: GI50

Query: If you can, please state the reported GI50 value of FC(F)(F)c1ccc(-c2cnc(Br)nc2NC2CCCCCC2)cc1 .
Result: 33.9 µM

Query: If you can, please state the reported GI50 value of CCSC1=CC(=O)c2ccccc2C1=O .
Result: 1.28 µM

Query: If you can, please state the reported GI50 value of C#Cc1ccc(NC(=O)c2ccc(/C=C/C(=O)c3nccn3C)cc2)cc1 .
Result: 0.346 µM

Query: If you can, please state the reported GI50 value of CC(=O)/C(C)=N/N/C(N)=N\S(=O)(=O)c1cc(C(=O)Nc2ccccc2)c(Cl)cc1SCc1ccccc1 .
Result: 29.6 µM

Query: If you can, please state the reported GI50 value of CC[C@H](C)[C@H](NC(=O)C12C3C4C1C1C2C3C41NC(C)=O)C(=O)N(C)[C@H](C[C@@H](OC(C)=O)c1nc(C(=O)N[C@@H](Cc2ccccc2)C[C@H](C)C(=O)OC)cs1)C(C)C (stereo partly drawn) .
Result: 8.55 µM

Query: If you can, please state the reported GI50 value of Oc1ccccc1-n1c(-c2ccccc2)ccc1-c1ccccc1 .
Result: 2.17 µM

Query: If you can, please state the reported GI50 value of O=C(NNS(=O)(=O)c1cc(C(F)(F)F)cc(C(F)(F)F)c1)c1cnn(-c2ccc(Cl)cc2)c1C(F)(F)F .
Result: 15.8 µM

Query: If you can, please state the reported GI50 value of COc1ccc(-c2ccc(-c3ccc(C(=N)N)cn3)s2)cc1Cl .
Result: 1.59 µM

Query: If you can, please state the reported GI50 value of Cn1cnc([N+](=O)[O-])c1Sc1ncnc2c1ncn2C1OC(CO)C(O)C1O (stereo not drawn) .
Result: 7.1 µM

Query: If you can, please state the reported GI50 value of CC(C)(C)CC(C)(C)c1ccc(OCCOCCSC(=N)N)cc1 .
Result: 1.75 µM

Query: If you can, please state the reported GI50 value of O=C(CCN1CCCC1)Nc1ccc2c(NCCCc3ccccc3)c3ccccc3nc2c1 .
Result: 1.6 µM

Query: If you can, please state the reported GI50 value of Cn1ccnc1C(=O)/C=C/c1ccc(C(=O)Nc2nc3ccccc3[nH]2)cc1 .
Result: 2.07 µM

Query: If you can, please state the reported GI50 value of O=c1[nH]c(-c2ccc(C(F)(F)F)cc2)nc2c1CSCC2 .
Result: 5.43 µM

Query: If you can, please state the reported GI50 value of O=C(/C=C\c1ccnc2ccccc12)c1ccc([N+](=O)[O-])cc1 .
Result: 4.99 µM

Query: If you can, please state the reported GI50 value of CN(Cc1cnc2nc(N)nc(N)c2n1)c1ccc(C(=O)NC(CCC(=O)O)C(=O)O)cc1 (stereo not drawn) .
Result: 0.27 µM

Query: If you can, please state the reported GI50 value of CC(=O)N1CC(F)(F)c2c(Sc3ncc(N4CCC5(CC4)COC[C@H]5N)nc3N)cccc21 .
Result: 2.96 µM

Query: If you can, please state the reported GI50 value of Cn1c(=O)c2[nH]c(COc3ccc(C(C)(C)C)cc3)nc2n(C)c1=O .
Result: 13.6 µM

Query: If you can, please state the reported GI50 value of C[C@H]1[C@@H](OCC(CO[C@H]2O[C@@H]3O[C@@]4(C)CC[C@H]5[C@H](C)CC[C@@H]([C@H]2C)[C@@]35OO4)=NOCC(=O)O)OC2O[C@@]3(C)CC[C@H]4[C@H](C)CC[C@@H]1[C@@]24OO3 (stereo partly drawn) .
Result: 0.0968 µM
